test: Toxicity liver stage against HepG2, at 10uM; type: cell-based; parameters: test concentration 10 uM, cell line HepG2-A16-CD81EGFP; settings: human, HepG2-A16-CD81EGFP cells; read-out: INHIBITION
observed property: cytotoxicity at 10 µM (%)
Number only, in %; omit the unit.

Return value of cytotoxicity at 10 µM for input CSCC(C)C(=O)NCc1c(C)nc2cc(=O)[nH]n2c1C (stereo not given) , no commentary.
-16.3

* * *

assay: Toxicity liver stage against HepG2, at 10uM; assay type: cell-based; set-up: test concentration 10 uM, cell line HepG2-A16-CD81EGFP; details: human, HepG2-A16-CD81EGFP cells; read-out: INHIBITION
observed property: cytotoxicity at 10 µM
Answer format: value, then unit.

1. COC(=O)C1CCN(C(=O)CN2CCN(c3cccc(C)c3)CC2)CC1: -17.5%

Give the reported cytotoxicity at 10 µM for this molecule. "COc1ccc(CNCCc2cc(F)cc3c2OCOC3)c(OC)c1"
-3.41%

Assign cytotoxicity at 10 µM to the following record: CC(CC(=O)c1ccccc1)NC(=O)c1ccon1 (centres undefined)
-10.7%

Query cytotoxicity at 10 µM for "Cc1ccc(CC(=O)N2C[C@@H](CN(C)C)[C@@H](CO)C2)cc1C"
-14%

* * *

assay: Toxicity liver stage against HepG2, at 10uM; format: cell-based; parameters: test concentration 10 uM, cell line HepG2-A16-CD81EGFP; conditions: human, HepG2-A16-CD81EGFP cells; read-out: INHIBITION
The entries below come with measured cytotoxicity at 10 µM values attached.
Reply with just the number (in %).

1. CCOc1ccc(CN(C)C(=O)c2nc(N3CCCC3)ncc2Cl)cc1: -33
2. Cc1ccc(CN2C[C@@H](C(=O)O)[C@H](c3ccccn3)C2)o1: -3.88
3. Cc1cc(CN(C)C(=O)c2ccc(OC(C)C)nc2)no1: -15.3

Retrieve cytotoxicity at 10 µM measured for "N#Cc1c2n(c3c(N)ncnc13)CCCCC2" and print it.
15.1

Write down cytotoxicity at 10 µM measured for item "CN(C)S(=O)(=O)c1cccc(CNc2cc(CO)ccc2Cl)c1"
5.36

Give cytotoxicity at 10 µM for "O=C(c1ccoc1)N1CC[C@@H]2O[C@@H](COCC3CCOCC3)CC[C@@H]21"
-76.2

Return cytotoxicity at 10 µM (reported value) for this molecule: "CN1N=C(C(=O)N2CCCN(c3ncccc3C#N)CC2)CCC1=O"
-1.8

State its cytotoxicity at 10 µM for this molecule: Cc1nc2cc(C3CCN(Cc4ccccc4F)C3)nn2c(O)c1C (centres undefined)
5.52

Annotate the molecule "NC(=O)C1CCN(C(=O)c2cc(Br)ccc2-n2cnnn2)CC1" with its measured cytotoxicity at 10 µM.
13.1

Assign cytotoxicity at 10 µM to the following record: "O=S(=O)(NCc1ccccc1)N1CCCN(c2ccncc2)CC1"
-11

Consider the molecule CCn1ccnc1CN1CCN(CCCS(C)(=O)=O)CC1C (centres undefined) and give its recorded cytotoxicity at 10 µM.
-194

Name the recorded cytotoxicity at 10 µM of the item "CN(Cc1ccccc1)c1ncccc1CNC1CCSCC1" in your answer.
-2.84

For the molecule "CCn1nc(C)c(NC(=O)CN2CCN(C(C)=O)CC2)c1C" , give its measured cytotoxicity at 10 µM value.
-6.67

Check the records and state cytotoxicity at 10 µM for "O[C@@H]1CN(Cc2ccc(F)c(F)c2)CC[C@H]1NCc1ccccn1"
3.85

* * *

assay: Toxicity liver stage against HepG2, at 10uM; assay type: cell-based; parameters: test concentration 10 uM, cell line HepG2-A16-CD81EGFP; details: human, HepG2-A16-CD81EGFP cells; read-out: INHIBITION
The following compounds are shown together with reported cytotoxicity at 10 µM values.
Form entry: value (%) — number only.

Reference set (2 entries):
1. Cc1cc(C)n(CC2CCCN2CC(=O)N(C)C)n1 (configuration not stated): -7.86
2. COCCOc1ccc(NC(=O)C2CC(=O)N(C(C)C)C2)cn1 (configuration not stated): -17.6

Give cytotoxicity at 10 µM for the following compound: "C[C@H](N)Cn1nc(-c2cccs2)oc1=O"
-1.94

Could you please provide reported cytotoxicity at 10 µM for O=C1CC(NS(=O)(=O)c2ccc(F)c(Cl)c2)CN1 (configuration not stated) ? Thanks!
6.32

Look up cytotoxicity at 10 µM of "CC(C)c1ccc(NC(=O)c2ncc(C(N)=O)cc2Cl)cc1" and report it.
-1.85

Supply measured cytotoxicity at 10 µM of "Cn1nc(C(C)(C)C)cc1NC(=O)Cn1ccccc1=O" in your reply.
-10.5

For the compound CCC(C)[C@H](N)c1nnc(SCC(=O)Nc2ccc(C)cc2C)o1 (some centres not stated) , give its measured cytotoxicity at 10 µM value.
-3.32

* * *

experiment: Toxicity liver stage against HepG2, at 10uM; format: cell-based; parameters: test concentration 10 uM, cell line HepG2-A16-CD81EGFP; settings: human, HepG2-A16-CD81EGFP cells; read-out: INHIBITION
Some compounds, each annotated with its measured cytotoxicity at 10 µM.
Record the value in %, omitting the unit from your answer.

1) COc1cc(NC(=O)NC2CC2)ccc1N1CCOC1=O: -6.44

Answer with the recorded cytotoxicity at 10 µM for the compound listed here: "COc1ccc2c(c1)CCN(Cc1cscn1)CC2"
0.0869

Hello, please tell me recorded cytotoxicity at 10 µM for this one: O=C(c1csc(C2CC2)n1)N1CCCC1Cn1cccn1 (stereo not given)
-5.53

Give cytotoxicity at 10 µM for the following compound: "Cc1c[nH]nc1C1CCN(C(=O)C2CCC2)CC1"
5.33

* * *

assay: Toxicity liver stage against HepG2, at 10uM; format: cell-based; parameters: test concentration 10 uM, cell line HepG2-A16-CD81EGFP; settings: human, HepG2-A16-CD81EGFP cells; read-out: INHIBITION
observed property: cytotoxicity at 10 µM

Complete the entry with cytotoxicity at 10 µM for "CC(C)(C)c1c[nH]c([C@@H]2COCCN2C2CCOCC2)n1"
-5.8%

Return cytotoxicity at 10 µM (reported value) for this compound: CC(C)n1cnnc1C1CCCN(S(=O)(=O)CCCC#N)C1 (stereo not drawn)
-3.46%

Quote cytotoxicity at 10 µM reported for "COC(=O)[C@H](C)NC(=O)Cc1c(C)nc2c(c1C)c(=O)[nH]n2C" please.
10.7%

Retrieve cytotoxicity at 10 µM measured for O=C(CC1CCCO1)NCCc1ccc(Br)cc1F (stereo not drawn) and print it.
-7.78%

For the compound COCCNC(C)c1ccc(-c2cccnc2)cc1 (stereo not drawn) , give its measured cytotoxicity at 10 µM value.
2.7%

Quote cytotoxicity at 10 µM reported for CC(=O)N(Cc1ncc(C)o1)C1CCN(Cc2ccc(F)c(F)c2)C1 (stereo not drawn) please.
13.4%

Specify cytotoxicity at 10 µM for "CN(C)c1cc(CNC(=O)Nc2ccc(N3CCCC3)nc2)ccn1" and stop.
-0.338%

Identify cytotoxicity at 10 µM associated with the compound O=C(N1CCC(Oc2ccncc2)C1)C1(c2cccc(F)c2)CC1 (stereo not drawn)
-6.52%

Specify cytotoxicity at 10 µM for "CN1CCCN(C[C@@H]2CN(C(=O)CC3CCC3)C[C@@H]2CO)CC1" and stop.
-9.11%

In one line, give reported cytotoxicity at 10 µM of the entry "O=C(c1c[nH]cn1)N1CCC(n2cc(-c3ccsc3)nn2)CC1" .
-14.3%

Annotate the compound "CC1CCN(C(=O)CN(Cc2ccco2)C2CC2)CC1" with its measured cytotoxicity at 10 µM.
-4.74%

Write down cytotoxicity at 10 µM measured for item "O=C(c1ncoc1-c1ccco1)N1CCCN(c2ncccn2)CC1"
2.7%

Tell me cytotoxicity at 10 µM reported for Cc1noc(Cl)c1CCC(=O)N1CCCCC1Cn1cccn1 (stereo not drawn)
-12.6%

Return value of cytotoxicity at 10 µM for input CCn1ncc2c1C(COCC1CC1)CN(c1ccncn1)C2 (stereo not drawn) , no commentary.
2.74%

* * *

assay: Toxicity liver stage against HepG2, at 10uM; assay type: cell-based; parameters: test concentration 10 uM, cell line HepG2-A16-CD81EGFP; details: human, HepG2-A16-CD81EGFP cells; read-out: INHIBITION
Catalogue of compounds with associated cytotoxicity at 10 µM
Give just the numeric value; % need not be written.

Study these solved cases before continuing.
1. CS(=O)(=O)c1ccc(CNC[C@H]2COCc3nc4ccccc4n32)cc1: -1.28
2. Cn1cc(NC(=O)c2cccc(-n3cnnn3)c2)cn1: 5.39
3. Cn1cnnc1S(=O)(=O)C1CCN(C(=O)c2ccsc2)CC1: 6.81
4. Cn1nc2c(cc1=O)CN(Cc1coc(-c3cccc(F)c3)n1)CC2: -12.6
5. Cc1ncc(C(=O)N2CCCC(n3cccn3)C2)s1 (stereo unspecified): -5.8
6. COCC1COCCC12CCN(Cc1nccs1)CC2 (stereo unspecified): 2.31
7. O=S(=O)(Nc1ncccc1F)c1cc(Cl)cc2c1OCC2: 1.6
8. CNC(=O)N1CCC2(COCc3c(C)nc(NCc4ccco4)nc32)C1 (stereo unspecified): 11.2

Specify cytotoxicity at 10 µM for "CNC(=O)[C@H]1C[C@@H]2CCN(Cc3ccncc3)C[C@H]2O1" and stop.
10.3

Consider the compound "COCCC(=O)N1CCN(CC2CC2)c2ccccc21" and give its recorded cytotoxicity at 10 µM.
-4.5

Dear colleague, please send me the reported cytotoxicity at 10 µM for "CN(C)CCN1CCO[C@H]2CCN(C(=O)c3cccs3)CC[C@@H]21" when you can.
-8.32

The reported numbers originate from ChEMBL document CHEMBL4513216.
